assay_explanation: qHTS assay to identify small molecule antagonists of the estrogen related receptor (ERR) signaling pathway from Tox21 library (AID 1224848); further: nearly all actives have a fitted effect of over 50% in size
condition: ERR reporter cell line, luciferase antagonist mode, 18 h; series mostly up to 92.4 µM
Description: U.S. Tox21 Program National Center for Advancing Translational Sciences [NCATS] NIH Chemical Genomics Center [NCGC] U.S. Environmental Protection Agency [EPA] National Institutes of Environmental Health Sciences [NIEHS] National Toxicology Program [NTP] U.S. Food and Drug Administration [FDA] Tox21 Assay Overview: Estrogen related receptors (ERRs), the first orphan nuclear receptors discovered, play an important role in the control of cellular energy metabolism. […]
Results filed as inconclusive are left out. Activity calls are given as the source filed them. The call rests on the fitted dose curve; in most records, active means well fitted inhibition curve with a large enough effect in the repeat runs; inconclusive means weak or mixed curves; inactive means no such curve, though single readings can be large or run the other way.
Parameter call: string, one of YES = active, NO = inactive

Worked cases, answers included:
- smiles_str: "CSc1ccc(O)cc1C"
  answer_label: "NO"
- smiles_str: "Cc1cc(Br)ccc1NC(=O)CCl"
  answer_label: "YES"
- smiles_str: "O=S(=O)(c1ccc(OCc2ccccc2)cc1)c1ccccc1O"
  answer_label: "YES"
- smiles_str: "Oc1ccc(C2(c3ccc(O)c(C4CCCCC4)c3)CCCCC2)cc1C1CCCCC1"
  answer_label: "YES"

## Input Hi, sorry to bother you, what did the test record for CCc1cccc(CC)c1 ?
## Output NO

## Input Hi, sorry to bother you, what did the test record for c1ccc(C[P+](c2ccccc2)(c2ccccc2)c2ccccc2)cc1 ?
## Output YES

## Input Hi, sorry to bother you, what did the test record for O=C1CCCCCCCCCCCCCC1 ?
## Output NO

## Input Hi, sorry to bother you, what did the test record for [Cl][Sc]([Cl])[Cl] ?
## Output NO

## Input Hi, sorry to bother you, what did the test record for N#Cc1nc(Cl)c(Cl)c(Cl)c1Cl ?
## Output YES

Source of measurements: PubChem BioAssay (Tox21)
